Data origin, for the record: ChEMBL document CHEMBL3988442

# System: Wolbachia pipientis
# Run description: Anti-Wolbachia Cell-Based Screen
# Format: functional
# Design: scale not given: in the data most compounds retested in dose-response had high values
# Measurement setup: 5 µM
Among all 48,000 compounds or so, about 13,000 (27%) showed an effect of 50% or more. The list shows a part of the results.
We begin with a simple list: items and their reported Percent Effect.

Use these answered entries as a reference point.
Compound | Test value
Cc1nc(SC2CCN(c3sccc3C#N)C2=O)oc1C (stereo not given) | 85.81%
COc1ccc(CN(C)C2CCN(S(C)(=O)=O)CC2)c2cccnc12 | 1.454%

[in] What measured Percent Effect goes with NC(=O)C(CNC(=O)CCc1ccsc1)Cc1ccc(F)cc1 (stereo not given) ?
[out] 115.1%

[in] Okay, and CNc1ncc(CN2CCCC2c2[nH]ncc2C(=O)N(C)C)cn1 (stereo not given) ?
[out] 118.3%

[in] Okay, and COc1ccc2c(c1)CN(CC1CC1)C(=O)CCN2CC(C)(C)O ?
[out] 98.75%
